Reported MIC values are given for each entry in this list.
system: Mycobacterium tuberculosis; test: Antimycobacterial activity against extensively drug-resistant Mycobacterium tuberculosis isolate 2911 horboring rpoB D516V, katG S315T/R463L, gyrA D94G/S95T/R128S/Y129C, rrs A1401G by CLSI method; type: functional
assay_readout: MIC

INSERT INTO assay_data (compound, assay_readout, measured) VALUES
  ('NC[C@H]1O[C@H](O[C@H]2[C@H](O)[C@@H](O[C@H]3O[C@H](CO)[C@@H](O)[C@H](N)[C@H]3O)[C@H](N)C[C@@H]2N)[C@H](O)[C@@H](O)[C@@H]1O', 'MIC', '>16 µg/mL'),
  ('CN[C@@H]1[C@H](O[C@H]2[C@H](O[C@H]3[C@H](O)[C@@H](O)[C@H](N=C(N)N)[C@@H](O)[C@@H]3N=C(N)N)O[C@@H](C)[C@]2(O)C=O)O[C@@H](CO)[C@H](O)[C@H]1O', 'MIC', '>16 µg/mL'),
  ('CC[C@@H](CO)NCCN[C@@H](CC)CO', 'MIC', '4 µg/mL');

* * *

test system: Mycobacterium tuberculosis; assay: Antimycobacterial activity against extensively drug-resistant Mycobacterium tuberculosis isolate 2911 horboring rpoB D516V, katG S315T/R463L, gyrA D94G/S95T/R128S/Y129C, rrs A1401G by CLSI method; type: functional
In this section, each of the compounds is paired with its reported MIC.
assay_readout: MIC (µg/mL)

INSERT INTO measurements (compound, target_or_test_system, operator, measured) VALUES
  ('CCc1cc(C(N)=S)ccn1 [ETHIONAMIDE]', 'Mycobacterium tuberculosis', '=', 4),
  ('NNC(=O)c1ccncc1', 'Mycobacterium tuberculosis', '=', 4),
  ('CC1COc2c(N3CCN(C)CC3)c(F)cc3c(=O)c(C(=O)O)cn1c23 (configuration not stated)', 'Mycobacterium tuberculosis', '=', 8),
  ('C[C@@H]1CN(c2c(F)c(N)c3c(=O)c(C(=O)O)cn(C4CC4)c3c2F)C[C@H](C)N1', 'Mycobacterium tuberculosis', '>', 16),
  ('NCC[C@H](O)C(=O)N[C@@H]1C[C@H](N)[C@@H](O[C@H]2O[C@H](CN)[C@@H](O)[C@H](O)[C@H]2O)[C@H](O)[C@H]1O[C@H]1O[C@H](CO)[C@@H](O)[C@H](N)[C@H]1O', 'Mycobacterium tuberculosis', '>', 16),
  ('N[C@@H]1CONC1=O', 'Mycobacterium tuberculosis', '=', 16),
  ('CO[C@H]1/C=C/O[C@@]2(C)Oc3c(C)c(O)c4c(O)c(c(/C=N/N5CCN(C)CC5)c(O)c4c3C2=O)NC(=O)/C(C)=C\C=C\[C@H](C)[C@H](O)[C@@H](C)[C@@H](O)[C@@H](C)[C@H](OC(C)=O)[C@@H]1C', 'Mycobacterium tuberculosis', '=', 16);
